# procedure_text: Caco2 permeability (bi-directional)
# Type: in vitro ADME, human
# setup_conditions: human, pH 7.4; Caco-2, apical to basolateral; read-out: Papp (A2B)
experimental_endpoint: Papp A→B at 1 h, 10 µM (×10⁻⁶ cm/s)

Below: 3 compounds and their reported Papp A→B at 1 h, 10 µM.
O=C(Nc1nc2cccc(-c3cnn(Cc4ccccc4)c3)n2n1)C1CC1    24.1
O=C(Nc1nc2cccc(-c3ccc(S(=O)(=O)NC4CC4)cc3)n2n1)C1CC1    3.03
CC1CN(C(=O)c2ccc(-c3cccc4nc(NC(=O)C5CC5)nn34)cc2)CC(C)O1 (centres unmarked)    6.05

a = O=C(Nc1nc2cccc(-c3ccc(NCc4ccccc4)nc3)n2n1)C1CC1
b = O=C(NCCOc1ccccc1)c1ccc(-c2cccc3nc(NC(=O)C4CC4)nn23)c(F)c1
c = N#Cc1ccc(COC2CN(C(=O)c3ccc(-c4cccc5nc(NC(=O)C6CC6)nn45)cc3)C2)cc1
Query: # ascending order, key=Papp A→B at 1 h, 10 µM # format: label list in the order the request specifies
Result: c, b, a
(c: 3.2 ×10⁻⁶ cm/s, b: 11.8 ×10⁻⁶ cm/s, a: 28 ×10⁻⁶ cm/s)

A = O=C(Nc1nc2cccc(-c3ccc(C(=O)N4CCC(O)(Cc5ccccc5)CC4)cc3)n2n1)C1CC1
B = O=C(Nc1nc2cccc(-c3ccc(C(=O)N4CCC(O)CC4)cc3)n2n1)C1CC1
Query: Which entry shows the lesser value of Papp A→B at 1 h, 10 µM here, A or B ? # reply format: chosen label
Result: B
(B: 0.5 ×10⁻⁶ cm/s, A: 4.1 ×10⁻⁶ cm/s)
